Each entry below lists one item and its recorded normalized growth value.
test: chemical genetic growth profiling, strain panel (AID 1159580);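 also: tested at 20 µM; growth read once vehicle control cultures reached saturation at 30 °C; 1 = growth at the plate median or of vehicle wells; lower values mean less growth of the strain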
measurementConditions: S. cerevisiae deletion strains, growth OD, locus YDR392W, strain spt3, stronger effect = lower value
The campaign covered roughly 5,500 compounds. About 2,000 (36%) were called active. About 18% were inconclusive and are not listed. The list shows a part of the results.
Give only the figure.

Reference set, count: 2
>  <compound>
COc1ccc(-c2oc3cc(OC)c(OC)c(OC)c3c(=O)c2OC)cc1

>  <normalized growth>
0.421

$$$$
>  <compound>
CC(=O)O[C@@H]1CC2C(C)(C)[C@@H](O)CC[C@]2(C)C2CC[C@@]3(C)[C@H](c4ccoc4)OC(=O)[C@H]4O[C@]43[C@@]21C (stereo partly specified)

>  <normalized growth>
0.968

$$$$

Exercise: Which normalized growth value belongs to C[C@]12C=CC(=O)C=C1CCC1C2[C@@H](O)C[C@@]2(C)C1CC[C@]2(O)C(=O)CO (stereo partly specified) ?
Key: 0.953

Exercise: Please give the result for CC(=O)O[C@@H]1CC2C(C)(C)[C@H](O)CC[C@]2(C)C2CC[C@@]3(C)[C@H](c4ccoc4)OC(=O)C4OC43[C@@]21C (stereo partly specified) too.
Key: 0.834

Exercise: Please give the result for Clc1ccc(CO/N=C(/Cn2ccnc2)c2ccc(Cl)cc2Cl)c(Cl)c1 too.
Key: 0.0807

Exercise: Please give the result for CN(C/C=C/C#CC(C)(C)C)Cc1cccc2ccccc12 too.
Key: 0.163

Exercise: Please give the result for CN1CCC[C@@H]1CCO[C@](C)(c1ccccc1)c1ccc(Cl)cc1 too.
Key: 0.866

Exercise: Please give the result for CC(=O)O[C@H]1C[C@@H](OC(C)=O)C(C)(C)C2C[C@@H](OC(C)=O)[C@]3(C)C(CC[C@@]4(C)[C@H](c5ccoc5)OC(=O)[C@H]5O[C@]543)[C@]21C (stereo partly specified) too.
Key: 0.989

Exercise: Please give the result for COc1ccc(CCC(=O)c2c(O)cc(O[C@@H]3O[C@H](CO)C(O)[C@H](O)C3O[C@@H]3O[C@@H](C)[C@H](O)[C@@H](O)[C@H]3O)cc2O)cc1O (stereo partly specified) too.
Key: 1.02

Exercise: Please give the result for CC(=O)Oc1ccc2c(c1)CCC1C2CC[C@]2(C)C(=O)CCC12 (stereo partly specified) too.
Key: 1.03

Exercise: Please give the result for CC[C@@H]1OC(=O)C[C@@H](O)[C@H](C)[C@@H](O[C@@H]2O[C@H](C)[C@@H](O)[C@H](N(C)C)[C@H]2O)[C@@H](CCN2C[C@H](C)C[C@H](C)C2)C[C@@H](C)C(=O)/C=C/C(C)=C\[C@@H]1CO[C@@H]1O[C@H](C)[C@@H](O)[C@@H](OC)[C@H]1OC too.
Key: 0.887

###

test: chemical genetic growth profiling, strain panel (AID 1159580)
measurementConditions: S. cerevisiae deletion strains, growth OD, locus YJR075W, strain HOC1, stronger effect = lower value
In all, about 5,500 compounds went through this assay and about 2,000 (36%) were called active. Roughly 18% stayed inconclusive and do not appear here. The list shows a part of the results.
So basically: is normalized growth under 1? Then MET. Not under? Then NOT MET.

>  <compound>
CCOC(=O)c1sc2sc(C(=O)c3ccc(Cl)cc3)c(C)c2c1C

>  <classLabel>
NOT MET

$$$$

Let us examine a further case.
Exercise: Lab note: normalized growth threshold 1. Does this compound come in strictly under it? CCC(C)C(=O)c1c(O)c(C)c2oc3c(C)c(O)c(C(=O)C(C)CC)c(O)c3c2c1O (stereo unspecified)
Key: MET

###

test: chemical genetic growth profiling, strain panel (AID 1159580)
measurementConditions: S. cerevisiae deletion strains, growth OD, locus YKL160W, strain elf1
Out of some 5,500 compounds screened, about 2,000 (36%) were called active. Another 18% or so got no clear call; they are omitted. Cut-off read from the data, not from the text of the source: active = normalized growth mostly below about 0.91 (no sharp cut-off); inconclusive = no clear call, values can overlap the other calls; inactive = mostly above about 0.92. Some of the results follow.
Your reply should match one of these outcome classes. Yes for active, No for inactive

Exercise: Recorded call for Cc1ccc(C(=O)c2ccc(CC(=O)O)n2C)cc1 ?
Key: No

###

test: chemical genetic growth profiling, strain panel (AID 1159580);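 also: tested at 20 µM; growth read once vehicle control cultures reached saturation at 30 °C; 1 = growth at the plate median or of vehicle wells; lower values mean less growth of the strain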
measurementConditions: S. cerevisiae deletion strains, growth OD, locus YHR142W, strain chs7, stronger effect = lower value
Screen size: about 5,500 compounds; about 2,000 (36%) were called active. About 18% were inconclusive and are not listed. The list shows a part of the results.
quantityName: normalized growth
Give only the figure.

>  <molecule>
CC(=O)C1CC[C@H]2C3CC[C@H]4C[C@H](O)CC[C@]4(C)C3CC[C@]12C (stereo not given in full)

>  <normalized growth>
0.957

$$$$
>  <molecule>
Clc1ccccc1CN1CCc2sccc2C1

>  <normalized growth>
0.961

$$$$
>  <molecule>
C=CCS(=O)C[C@H](N)C(=O)O (stereo not given in full)

>  <normalized growth>
1.02

$$$$
>  <molecule>
NC1(C(=O)O)CCCC1

>  <normalized growth>
1.03

$$$$
>  <molecule>
Cc1oncc1C(=O)Nc1ccc(C(F)(F)F)cc1

>  <normalized growth>
0.928

$$$$

Exercise: Which normalized growth value belongs to CN[C@@H]1C(OC2[C@H](O[C@H]3[C@H](O)[C@@H](O)[C@H](N=C(N)N)[C@@H](O)[C@@H]3N=C(N)N)OC(C)[C@]2(O)CO)OC(CO)C(O)C1O (stereo not given in full) ?
Key: 1.02

Exercise: Please give the result for C[C@]12CCC3c4ccc(O)cc4CCC3C1CCC2=O (stereo not given in full) too.
Key: 0.949

Exercise: Please give the result for CC1CCC(NC(=O)N(CCCl)N=O)CC1 (stereo not given) too.
Key: 0.476

Exercise: Please give the result for CCCn1c(=O)c2[nH]c(C3CCCC3)nc2n(CCC)c1=O too.
Key: 0.988

Exercise: Please give the result for CCC(C)C(=O)c1c(O)c(C)c2oc3c(C)c(O)c(C(=O)C(C)CC)c(O)c3c2c1O (stereo not given) too.
Key: 1.02

Exercise: Please give the result for CN1CCC[C@@H]1CCO[C@](C)(c1ccccc1)c1ccc(Cl)cc1 too.
Key: 0.884

Exercise: Please give the result for NCCCCCC(=O)O too.
Key: 1

Exercise: Please give the result for CC12CCC3C(=CCc4cc(O)ccc43)C1CCC2=O (stereo not given) too.
Key: 0.929

Exercise: Please give the result for CC(O)(P(=O)(O)O)P(=O)(O)O too.
Key: 0.998

Exercise: Please give the result for CC(=O)OCC(=O)[C@@]1(O)CCC2C3CCC4=CC(=O)C=CC4(C)C3[C@@H](O)C[C@@]21C (stereo not given in full) too.
Key: 0.989

Exercise: Please give the result for CC(C)=CC1C(C(=O)OCc2cccc(Oc3ccccc3)c2)C1(C)C (stereo not given) too.
Key: 1

Exercise: Please give the result for CC(=O)C1CCC2C3CCC4C[C@H](O)CCC4(C)C3C[C@H](O)C12C (stereo not given in full) too.
Key: 0.953

Exercise: Please give the result for NC1(C(=O)O)CC1 too.
Key: 1.05

Exercise: Please give the result for NCCCCC(=O)O too.
Key: 1.03

Exercise: Please give the result for C[C@@H]1CC[C@H]2C(C)(C)C3CC12CC[C@@]3(C)O (stereo not given in full) too.
Key: 0.605

###

Each entry below lists one item and its recorded normalized growth value.
test: chemical genetic growth profiling, strain panel (AID 1159580);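 also: tested at 20 µM; growth read once vehicle control cultures reached saturation at 30 °C; 1 = growth at the plate median or of vehicle wells; lower values mean less growth of the strain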
measurementConditions: S. cerevisiae deletion strains, growth OD, locus YEL061C, strain CIN8, stronger effect = lower value
The campaign covered roughly 5,500 compounds. About 2,000 (36%) were called active. Another 18% or so got no clear call; they are omitted. This is one part of the list.
Give only the figure.

>  <compound>
CC1[C@H](C)OC(=O)CC(O)CC(O)CC(O)CCC(O)C(O)C[C@]2(O)CC(O)C(C(=O)O)C(CC(OC3O[C@H](C)[C@@H](O)[C@H](N)[C@@H]3O)/C=C/C=C/C=C/C=C/CC/C=C/C=C/[C@H](C)[C@H]1O)O2 (some centres not stated)

>  <normalized growth>
0.0554

$$$$
>  <compound>
O=C(O)C(O)C(O)C(=O)O (configuration not stated)

>  <normalized growth>
0.984

$$$$

Exercise: Which normalized growth value belongs to Nc1ncnc(SCc2ccc(Cl)cc2)n1 ?
Key: 0.968

###

test: chemical genetic growth profiling, strain panel (AID 1159580);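 also: tested at 20 µM; growth read once vehicle control cultures reached saturation at 30 °C; 1 = growth at the plate median or of vehicle wells; lower values mean less growth of the strain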
measurementConditions: S. cerevisiae deletion strains, growth OD, locus YPL153C, strain RAD53, stronger effect = lower value
Screen size: about 5,500 compounds; about 2,000 (36%) were called active. Roughly 18% stayed inconclusive and do not appear here. Some of the results follow.
Each entry below lists one item and its recorded normalized growth value.
Give only the figure.

Reference set, count: 3
>  <compound>
CNC(=O)Sc1c(-c2ccc(Cl)cc2)nn(C(=O)NC)c1SC

>  <normalized growth>
0.337

$$$$
>  <compound>
COc1ccc(-c2cn3cc(C)ccc3n2)cc1

>  <normalized growth>
0.986

$$$$
>  <compound>
C[C@@H](Nc1ncnc2sc3c(c12)CCCC3)c1ccccc1

>  <normalized growth>
0.918

$$$$

Exercise: Which normalized growth value belongs to CC(C)(C)C1=C(C#N)C(c2c(Cl)cccc2Cl)C(C#N)=C(N)O1 (centres undefined) ?
Key: 1

meta.source: PubChem BioAssay AID1159580
